This listing pairs compounds with measured % Inhibition at 10 μM LSD-1 enzyme.
Target: LSD-1 (Homo sapiens)
Construct: purchased Cayman Chemical-USA 700120
Assay: fluorometric LSD-1 enzymatic assay (Cayman kit)
Assay type: biochemical
Settings: 10 μM
Form entry: value (%) — number only.

{"columns": ["compound", "target system", "measurement units", "value reported"],
 "data": [
  ["COc1cccc2c1C(=O)c1c(O)c3c(c(O)c1C2=O)CC(O)(C(C)=NNC(=O)CO)CC3OC1CC(N)C(O)C(C)O1 (centres unmarked)", "LSD-1 (Homo sapiens)", "%", 78]
]}

Entry `N=C(N)c1ccc(OCCCCCCOc2ccc(C(=N)N)cc2I)cc1` ; % Inhibition at 10 μM LSD-1 enzyme = 88

Entry `CCCCOCCCNCC(=O)Nc1ccc(S(=O)(=O)c2ccc(NC(=O)CNCCCOCCCC)cc2)cc1` ; % Inhibition at 10 μM LSD-1 enzyme = 96

Entry `N=C(N)c1ccc(OCCCCCCOc2ccc(C(=N)N)cc2)cc1` ; % Inhibition at 10 μM LSD-1 enzyme = 18

Entry `O=C(NCCCCCCCCCCNC(=O)Nc1cccc(C2=NCCN2)c1)Nc1cccc(C2=NCCN2)c1` ; % Inhibition at 10 μM LSD-1 enzyme = 18

----------
Test system: neuroblastoma SH-SY5Y cells
Test: MTT cell viability assay on SH-SY5Y cells
Assay type: cell-based
Details: without verapamil, read-out: In vitro IC50
property: pIC50
// pIC50 here means minus log10 of the molar concentration (mol/L)

Entry COc1cccc2c1C(=O)c1c(O)c3c(c(O)c1C2=O)CC(O)(C(C)=NNC(=O)CO)CC3OC1CC(N)C(O)C(C)O1 (stereo not shown) [Hit 298] ; pIC50 = 7.52

----------
Test system: pancreatic carcinoma Panc-1 cells
Experiment: MTT cytotoxicity against Panc-1 cells
Type: cell-based
Details: 10 μM
property: % Inhibition at 10 μM Panc-1

The cases that follow already have their % Inhibition at 10 μM Panc-1 on record.
{"columns": ["compound", "property", "value reported"],
 "data": [
  ["CCCCOCCCNCC(=O)Nc1ccc(S(=O)(=O)c2ccc(NC(=O)CNCCCOCCCC)cc2)cc1 [Cpd 287]", "% Inhibition at 10 μM Panc-1", "39%"],
  ["N=C(N)c1ccc(OCCCCCCOc2ccc(C(=N)N)cc2)cc1 [Cpd 288]", "% Inhibition at 10 μM Panc-1", "41%"],
  ["N=C(N)c1ccc(OCCCCCCOc2ccc(C(=N)N)cc2I)cc1 [Cpd 304]", "% Inhibition at 10 μM Panc-1", "73%"],
  ["COc1cccc2c1C(=O)c1c(O)c3c(c(O)c1C2=O)CC(O)(C(C)=NNC(=O)CO)CC3OC1CC(N)C(O)C(C)O1 (centres unmarked) [Cpd 298]", "% Inhibition at 10 μM Panc-1", "93%"]
]}

With those in mind, consider the next compound.
Entry O=C(NCCCCCCCCCCNC(=O)Nc1cccc(C2=NCCN2)c1)Nc1cccc(C2=NCCN2)c1 [Cpd 285] ; % Inhibition at 10 μM Panc-1 = 3%

----------
Tested on: neuroblastoma SH-SY5Y cells
Assay: MTT cell viability assay on SH-SY5Y cells
Type: cell-based
Conditions: Homo sapiens, without verapamil, read-out: In vitro IC50
property: pIC50
// pIC50 here means minus log10 of the molar concentration (mol/L)

Entry COc1cccc2c1C(=O)c1c(O)c3c(c(O)c1C2=O)C[C@@](O)(C(=O)CO)C[C@@H]3O[C@H]1C[C@H](N)[C@H](O)[C@H](C)O1 [Doxorubicin, reference compound] ; pIC50 = 6.22

----------
Molecular target: LSD-1 (Homo sapiens)
Construct: purchased Cayman Chemical-USA 700120
Assay: fluorometric LSD-1 enzymatic assay (Cayman kit)
Format: biochemical
This listing pairs compounds with measured HS (hill Slope) LSD-1 enzyme.
Number only, please.

The cases that follow already have their HS (hill Slope) LSD-1 enzyme on record.
{"columns": ["compound", "value reported"],
 "data": [
  ["N=C(N)c1ccc(OCCCCCCOc2ccc(C(=N)N)cc2I)cc1 [Cpd 304]", 0.70],
  ["CCCCOCCCNCC(=O)Nc1ccc(S(=O)(=O)c2ccc(NC(=O)CNCCCOCCCC)cc2)cc1", 0.75],
  ["COc1cccc2c1C(=O)c1c(O)c3c(c(O)c1C2=O)CC(O)(C(C)=NNC(=O)CO)CC3OC1CC(N)C(O)C(C)O1 (centres unmarked) [Hit 298]", 0.36],
  ["N=C(N)c1ccc(OCCCCCCOc2ccc(C(=N)N)cc2I)cc1 [Hit 304]", 0.68]
]}

With those in mind, consider the next compound.
Entry COc1cccc2c1C(=O)c1c(O)c3c(c(O)c1C2=O)CC(O)(C(C)=NNC(=O)CO)CC3OC1CC(N)C(O)C(C)O1 (centres unmarked) [Cpd 298] ; HS (hill Slope) LSD-1 enzyme = 0.36

----------
Tested on: neuroblastoma SH-SY5Y cells
Assay: MTT cell viability assay on SH-SY5Y cells
Assay type: cell-based
Settings: in presence of verapamil (10 μM), read-out: In vitro IC50
This listing pairs molecules with measured IC50.
Form entry: value (µM) — number only.

{"columns": ["molecule", "measurement units", "IC50"],
 "data": [
  ["O=C(NCCCCCCCCCCNC(=O)Nc1cccc(C2=NCCN2)c1)Nc1cccc(C2=NCCN2)c1 [Hit 285]", "µM", 3.11],
  ["N=C(N)c1ccc(OCCCCCCOc2ccc(C(=N)N)cc2I)cc1 [Hit 304]", "µM", 0.37],
  ["N=C(N)c1ccc(OCCCCCCOc2ccc(C(=N)N)cc2)cc1 [Hit 288]", "µM", 0.24]
]}

Entry O=C(NCCCCCCCCCCNC(=O)Nc1cccc(C2=NCC(O)CN2)c1)Nc1cccc(C2=NCC(O)CN2)c1 (centres unmarked) [Hit 286] ; IC50 = 7.62

Entry CCCCOCCCNCC(=O)Nc1ccc(S(=O)(=O)c2ccc(NC(=O)CNCCCOCCCC)cc2)cc1 [Hit 287] ; IC50 = 5.46

----------
Target: LSD-1 (Homo sapiens, UniProt O60341)
Construct: purchased Cayman Chemical-USA 700120
Assay: fluorometric LSD-1 enzymatic assay (Cayman kit)
Type: biochemical
Details: read-out: IC50 LSD-1 enzyme
Method: Briefly, the assay is based on a multistep enzymatic reaction in which LSD-1 first produces H2O2 during the demethylation of lysine 4 on a peptide corresponding to the first 21 amino acids of the N-terminal tail of histone H3. […] Resorufin fluorescence was analysed with an excitation wavelength 530–540 nm and an emission wavelength of 585–595 nm. […] (vi) Remove the plate cover and read the plate using an excitation wavelength of 530–540 nm and an emission wavelength of 585–595 nm. […]
property: IC50 (nM)
Form entry: value (nM) — number only.

{"columns": ["compound", "measurement units", "IC50"],
 "data": [
  ["CCCCOCCCNCC(=O)Nc1ccc(S(=O)(=O)c2ccc(NC(=O)CNCCCOCCCC)cc2)cc1", "nM", 210],
  ["N=C(N)c1ccc(OCCCCCCOc2ccc(C(=N)N)cc2I)cc1 [Hit 304]", "nM", 610],
  ["COc1cccc2c1C(=O)c1c(O)c3c(c(O)c1C2=O)CC(O)(C(C)=NNC(=O)CO)CC3OC1CC(N)C(O)C(C)O1 (centres unmarked) [Cpd 298]", "nM", 210]
]}

Entry COc1cccc2c1C(=O)c1c(O)c3c(c(O)c1C2=O)CC(O)(C(C)=NNC(=O)CO)CC3OC1CC(N)C(O)C(C)O1 (centres unmarked) [Hit 298] ; IC50 = 210

Entry N=C(N)c1ccc(OCCCCCCOc2ccc(C(=N)N)cc2I)cc1 [Cpd 304] ; IC50 = 610

----------
Test system: glioblastoma U-87 MG cells
Test: MTT cytotoxicity against U-87 MG cells
Type: cell-based
This listing pairs molecules with measured IC50.
Form entry: value (µM) — number only.

The cases that follow already have their IC50 on record.
{"columns": ["molecule", "IC50 (µM)"],
 "data": [
  ["COc1cccc2c1C(=O)c1c(O)c3c(c(O)c1C2=O)CC(O)(C(C)=NNC(=O)CO)CC3OC1CC(N)C(O)C(C)O1 (stereo not shown) [Hit 298]", 0.93],
  ["COc1cccc2c1C(=O)c1c(O)c3c(c(O)c1C2=O)CC(O)(C(C)=NNC(=O)CO)CC3OC1CC(N)C(O)C(C)O1 (stereo not shown) [Cpd 298]", 0.92],
  ["N=C(N)c1ccc(OCCCCCCOc2ccc(C(=N)N)cc2I)cc1 [Cpd 304]", 7.27]
]}

Entry N=C(N)c1ccc(OCCCCCCOc2ccc(C(=N)N)cc2I)cc1 [Hit 304] ; IC50 = 7.27

----------
System: glioblastoma U-87 MG cells
Test: MTT cytotoxicity against U-87 MG cells
Assay type: cell-based
Details: 10 μM
property: % Inhibition at 10 μM U-87 MG (%)
Form entry: value (%) — number only.

The cases that follow already have their % Inhibition at 10 μM U-87 MG on record.
{"columns": ["compound", "target system", "value reported"],
 "data": [
  ["N=C(N)c1ccc(OCCCCCCOc2ccc(C(=N)N)cc2I)cc1 [Cpd 304]", "glioblastoma U-87 MG cells", 64],
  ["CCCCOCCCNCC(=O)Nc1ccc(S(=O)(=O)c2ccc(NC(=O)CNCCCOCCCC)cc2)cc1 [Cpd 287]", "glioblastoma U-87 MG cells", 15],
  ["O=C(NCCCCCCCCCCNC(=O)Nc1cccc(C2=NCCN2)c1)Nc1cccc(C2=NCCN2)c1 [Cpd 285]", "glioblastoma U-87 MG cells", 0],
  ["COc1cccc2c1C(=O)c1c(O)c3c(c(O)c1C2=O)CC(O)(C(C)=NNC(=O)CO)CC3OC1CC(N)C(O)C(C)O1 (centres unmarked) [Cpd 298]", "glioblastoma U-87 MG cells", 81]
]}

With those in mind, consider the next compound.
Entry N=C(N)c1ccc(OCCCCCCOc2ccc(C(=N)N)cc2)cc1 [Cpd 288] ; % Inhibition at 10 μM U-87 MG = 47
